Experiment description: Cytotoxicity against rat H9c2 cells assessed as cell viability at 1.57 to 200 mg/mL after 48 hrs by MTT assay
Type: cell-based
Run conditions: read-out: Activity
Quantity: viability at 48 h

Molecule	Readout value
CC(=O)N(C1=NN(C(C)=O)C(c2cc3ccccc3nc2Cl)S1)c1cc(F)ccc1F (configuration not stated)	> 80%
CC(=O)N(C1=NN(C(C)=O)C(c2cc3cccc(C)c3nc2Cl)S1)c1cc(F)ccc1F (configuration not stated)	> 80%

====

Test system: Streptococcus pyogenes
Experiment description: Antibacterial activity against Streptococcus pyogenes after 18 hrs by macro-dilution test
Assay type: functional
Quantity: log10 MIC (log10 of the value in µg/mL)

Molecule	log10 MIC
CC(=O)N(C1=NN(C(C)=O)C(c2cc3cccc(C)c3nc2Cl)S1)c1ccccc1C (stereo not drawn)	1.51
O=[N+]([O-])c1ccc(NC(=S)N/N=C/c2cc3cccc(Cl)c3nc2Cl)cc1	1.81
NC(=S)N/N=C/c1cc2cccc(Cl)c2nc1Cl	1.81
CC(=O)N(C1=NN(C(C)=O)C(c2cc3cccc(C)c3nc2Cl)S1)c1ccc([N+](=O)[O-])cc1 (stereo not drawn)	1.81
Fc1ccc(F)c(NC(=S)N/N=C/c2cc3cccc(Cl)c3nc2Cl)c1	1.51
CC(=O)N1N=C(N(C(C)=O)C2CCCCC2)SC1c1cc2cccc(C)c2nc1Cl (stereo not drawn)	2.11
CC(=O)N1N=C(N(C(C)=O)C2CCCCCCC2)SC1c1cc2cccc(Cl)c2nc1Cl (stereo not drawn)	2.11
CC(=O)N1N=C(N(C(C)=O)C2CCCC2)SC1c1cc2cccc(Cl)c2nc1Cl (stereo not drawn)	1.81
Cc1ccc(NC(=S)N/N=C/c2cc3ccccc3nc2Cl)cc1	1.51
O=[N+]([O-])c1ccc(NC(=S)N/N=C/c2cc3ccccc3nc2Cl)cc1	1.81
Cc1ccccc1NC(=S)N/N=C/c1cc2ccccc2nc1Cl	1.81
CC(=O)NC1=NN(C(C)=O)C(c2cc3cccc(Cl)c3nc2Cl)S1 (stereo not drawn)	1.81
S=C(N/N=C/c1cc2cccc(Cl)c2nc1Cl)NC1CCCC1	2.41
S=C(N/N=C/c1cc2cccc(Cl)c2nc1Cl)NC1CCCCCCC1	2.41
Cc1ccc(NC(=S)N/N=C/c2cc3cccc(Cl)c3nc2Cl)cc1	1.51
S=C(N/N=C/c1cc2ccccc2nc1Cl)NC1CCCCC1	2.41
CC(=O)N(C1=NN(C(C)=O)C(c2cc3cccc(Cl)c3nc2Cl)S1)c1ccc(C)cc1 (stereo not drawn)	1.81
CC(=O)N1N=C(N(C(C)=O)C2CCCCC2)SC1c1cc2cccc(Cl)c2nc1Cl (stereo not drawn)	2.11
CC(=O)N(C1=NN(C(C)=O)C(c2cc3ccccc3nc2Cl)S1)c1ccccc1C (stereo not drawn)	1.20
CC(=O)N(C1=NN(C(C)=O)C(c2cc3cccc(C)c3nc2Cl)S1)c1cc(F)ccc1F (stereo not drawn)	1.20
S=C(N/N=C/c1cc2cccc(Cl)c2nc1Cl)NC1CCCCC1	2.11
CC1(C)S[C@@H]2[C@H](NC(=O)[C@H](N)c3ccc(O)cc3)C(=O)N2[C@H]1C(=O)O	1.51
S=C(N/N=C/c1cc2ccccc2nc1Cl)NC1CCCC1	2.11
CC(=O)N(C1=NN(C(C)=O)C(c2cc3cccc(Cl)c3nc2Cl)S1)c1ccccc1C (stereo not drawn)	1.81
Cc1ccc(NC(=S)N/N=C/c2cc3cccc(C)c3nc2Cl)cc1	1.81
Cc1cccc2cc(/C=N/NC(=S)NC3CCCCC3)c(Cl)nc12	2.41
CC(=O)N(C1=NN(C(C)=O)C(c2cc3cccc(C)c3nc2Cl)S1)c1ccc(C)cc1 (stereo not drawn)	1.81
CC(=O)N(C1=NN(C(C)=O)C(c2cc3cccc(Cl)c3nc2Cl)S1)c1cc(F)ccc1F (stereo not drawn)	1.81
CC(=O)NC1=NN(C(C)=O)C(c2cc3ccccc3nc2Cl)S1 (stereo not drawn)	1.81
CC(=O)N1N=C(N(C(C)=O)C2CCCC2)SC1c1cc2cccc(C)c2nc1Cl (stereo not drawn)	1.81
Fc1ccc(F)c(NC(=S)N/N=C/c2cc3ccccc3nc2Cl)c1	1.81
Cc1ccccc1NC(=S)N/N=C/c1cc2cccc(C)c2nc1Cl	1.81
CC(=O)N1N=C(N(C(C)=O)C2CCCCCCC2)SC1c1cc2cccc(C)c2nc1Cl (stereo not drawn)	2.41
CC(=O)N1N=C(N(C(C)=O)C2CCCC2)SC1c1cc2ccccc2nc1Cl (stereo not drawn)	1.51
CC(=O)NC1=NN(C(C)=O)C(c2cc3cccc(C)c3nc2Cl)S1 (stereo not drawn)	1.81
Cc1cccc2cc(/C=N/NC(N)=S)c(Cl)nc12	2.11
CC(=O)N(C1=NN(C(C)=O)C(c2cc3cccc(Cl)c3nc2Cl)S1)c1ccc([N+](=O)[O-])cc1 (stereo not drawn)	1.81
CC(=O)N1N=C(N(C(C)=O)C2CCCCC2)SC1c1cc2ccccc2nc1Cl (stereo not drawn)	2.41

====

System: Staphylococcus aureus
Experiment description: Antibacterial activity against Staphylococcus aureus measured at MIC after 18 hrs by halo zone test
Type: functional

Compound	Assayed target	Unit name	inhibition zone (IZ)
Fc1ccc(F)c(NC(=S)N/N=C/c2cc3cccc(Cl)c3nc2Cl)c1	Staphylococcus aureus	mm	12.15
CC(=O)N1N=C(N(C(C)=O)C2CCCCC2)SC1c1cc2ccccc2nc1Cl (stereo not given)	Staphylococcus aureus	mm	14.03
Cc1ccc(NC(=S)N/N=C/c2cc3ccccc3nc2Cl)cc1	Staphylococcus aureus	mm	17.93
S=C(N/N=C/c1cc2ccccc2nc1Cl)NC1CCCCCCC1	Staphylococcus aureus	mm	9.9
CC(=O)N(C1=NN(C(C)=O)C(c2cc3cccc(C)c3nc2Cl)S1)c1ccc(C)cc1 (stereo not given)	Staphylococcus aureus	mm	18.92
CC(=O)N(C1=NN(C(C)=O)C(c2cc3cccc(Cl)c3nc2Cl)S1)c1ccc([N+](=O)[O-])cc1 (stereo not given)	Staphylococcus aureus	mm	19.81
Cc1ccc(NC(=S)N/N=C/c2cc3cccc(Cl)c3nc2Cl)cc1	Staphylococcus aureus	mm	15.01
CC(=O)N(C1=NN(C(C)=O)C(c2cc3ccccc3nc2Cl)S1)c1cc(F)ccc1F (stereo not given)	Staphylococcus aureus	mm	17.41
CC1(C)S[C@@H]2[C@H](NC(=O)[C@H](N)c3ccc(O)cc3)C(=O)N2[C@H]1C(=O)O [AMOXICILLIN]	Staphylococcus aureus	mm	20.85
CC(=O)N(C1=NN(C(C)=O)C(c2cc3cccc(C)c3nc2Cl)S1)c1ccccc1C (stereo not given)	Staphylococcus aureus	mm	15.8
O=[N+]([O-])c1ccc(NC(=S)N/N=C/c2cc3cccc(Cl)c3nc2Cl)cc1	Staphylococcus aureus	mm	19.7
Fc1ccc(F)c(NC(=S)N/N=C/c2cc3ccccc3nc2Cl)c1	Staphylococcus aureus	mm	16.75
CC(=O)NC1=NN(C(C)=O)C(c2cc3cccc(Cl)c3nc2Cl)S1 (stereo not given)	Staphylococcus aureus	mm	18.13
CC(=O)N1N=C(N(C(C)=O)C2CCCC2)SC1c1cc2cccc(Cl)c2nc1Cl (stereo not given)	Staphylococcus aureus	mm	18.03
CC(=O)N(C1=NN(C(C)=O)C(c2cc3ccccc3nc2Cl)S1)c1ccc([N+](=O)[O-])cc1 (stereo not given)	Staphylococcus aureus	mm	14.29
CC(=O)NC1=NN(C(C)=O)C(c2cc3cccc(C)c3nc2Cl)S1 (stereo not given)	Staphylococcus aureus	mm	13.66
CC(=O)N1N=C(N(C(C)=O)C2CCCC2)SC1c1cc2cccc(C)c2nc1Cl (stereo not given)	Staphylococcus aureus	mm	19
CC(=O)N1N=C(N(C(C)=O)C2CCCCC2)SC1c1cc2cccc(Cl)c2nc1Cl (stereo not given)	Staphylococcus aureus	mm	17.39
CC(=O)N(C1=NN(C(C)=O)C(c2cc3cccc(Cl)c3nc2Cl)S1)c1ccccc1C (stereo not given)	Staphylococcus aureus	mm	19.76
CC(=O)N(C1=NN(C(C)=O)C(c2cc3ccccc3nc2Cl)S1)c1ccc(C)cc1 (stereo not given)	Staphylococcus aureus	mm	18.27
S=C(N/N=C/c1cc2ccccc2nc1Cl)NC1CCCCC1	Staphylococcus aureus	mm	12.37
CC(=O)N(C1=NN(C(C)=O)C(c2cc3cccc(Cl)c3nc2Cl)S1)c1cc(F)ccc1F (stereo not given)	Staphylococcus aureus	mm	12.99
CC(=O)N1N=C(N(C(C)=O)C2CCCCC2)SC1c1cc2cccc(C)c2nc1Cl (stereo not given)	Staphylococcus aureus	mm	15.42
Cc1cccc2cc(/C=N/NC(N)=S)c(Cl)nc12	Staphylococcus aureus	mm	12.76
NC(=S)N/N=C/c1cc2ccccc2nc1Cl	Staphylococcus aureus	mm	11.67

====

System: Streptococcus pyogenes
Experiment description: Antibacterial activity against Streptococcus pyogenes measured at MIC after 18 hrs by halo zone test
Type: functional
Quantity: inhibition zone (IZ) (mm)

Compound	Readout value
S=C(N/N=C/c1cc2ccccc2nc1Cl)NC1CCCCCCC1	13.67
CC(=O)N1N=C(N(C(C)=O)C2CCCCC2)SC1c1cc2cccc(Cl)c2nc1Cl (stereo not drawn)	17.73
CC(=O)N(C1=NN(C(C)=O)C(c2cc3cccc(C)c3nc2Cl)S1)c1ccc([N+](=O)[O-])cc1 (stereo not drawn)	15.27
S=C(N/N=C/c1cc2ccccc2nc1Cl)NC1CCCC1	21.07
Fc1ccc(F)c(NC(=S)N/N=C/c2cc3cccc(Cl)c3nc2Cl)c1	15.92
Cc1ccccc1NC(=S)N/N=C/c1cc2ccccc2nc1Cl	16.48
CC(=O)N(C1=NN(C(C)=O)C(c2cc3cccc(C)c3nc2Cl)S1)c1cc(F)ccc1F (stereo not drawn)	16.13
S=C(N/N=C/c1cc2cccc(Cl)c2nc1Cl)NC1CCCC1	13.15
CC(=O)NC1=NN(C(C)=O)C(c2cc3ccccc3nc2Cl)S1 (stereo not drawn)	16.97
CC(=O)NC1=NN(C(C)=O)C(c2cc3cccc(Cl)c3nc2Cl)S1 (stereo not drawn)	19.91
CC(=O)N(C1=NN(C(C)=O)C(c2cc3cccc(Cl)c3nc2Cl)S1)c1cc(F)ccc1F (stereo not drawn)	13.92
CC1(C)S[C@@H]2[C@H](NC(=O)[C@H](N)c3ccc(O)cc3)C(=O)N2[C@H]1C(=O)O [AMOXICILLIN]	19.57
S=C(N/N=C/c1cc2cccc(Cl)c2nc1Cl)NC1CCCCC1	13.73
O=[N+]([O-])c1ccc(NC(=S)N/N=C/c2cc3ccccc3nc2Cl)cc1	12.25
Cc1cccc2cc(/C=N/NC(=S)NC3CCCCCCC3)c(Cl)nc12	14.45
Cc1cccc2cc(/C=N/NC(=S)NC3CCCC3)c(Cl)nc12	18.71
CC(=O)N(C1=NN(C(C)=O)C(c2cc3cccc(C)c3nc2Cl)S1)c1ccccc1C (stereo not drawn)	19.14
Cc1cccc2cc(/C=N/NC(=S)Nc3ccc([N+](=O)[O-])cc3)c(Cl)nc12	13.27
O=[N+]([O-])c1ccc(NC(=S)N/N=C/c2cc3cccc(Cl)c3nc2Cl)cc1	15.26
CC(=O)N(C1=NN(C(C)=O)C(c2cc3cccc(Cl)c3nc2Cl)S1)c1ccccc1C (stereo not drawn)	13.84
CC(=O)N1N=C(N(C(C)=O)C2CCCCCCC2)SC1c1cc2cccc(C)c2nc1Cl (stereo not drawn)	15.45
CC(=O)N1N=C(N(C(C)=O)C2CCCCCCC2)SC1c1cc2cccc(Cl)c2nc1Cl (stereo not drawn)	17.94
Fc1ccc(F)c(NC(=S)N/N=C/c2cc3ccccc3nc2Cl)c1	14.07
Cc1cccc2cc(/C=N/NC(=S)NC3CCCCC3)c(Cl)nc12	11.08
Cc1cccc2cc(/C=N/NC(N)=S)c(Cl)nc12	17.1
CC(=O)N(C1=NN(C(C)=O)C(c2cc3cccc(Cl)c3nc2Cl)S1)c1ccc(C)cc1 (stereo not drawn)	17.09
Cc1ccccc1NC(=S)N/N=C/c1cc2cccc(Cl)c2nc1Cl	10.26
CC(=O)NC1=NN(C(C)=O)C(c2cc3cccc(C)c3nc2Cl)S1 (stereo not drawn)	16.77
NC(=S)N/N=C/c1cc2ccccc2nc1Cl	16.97
Cc1ccc(NC(=S)N/N=C/c2cc3cccc(Cl)c3nc2Cl)cc1	15.76
CC(=O)N1N=C(N(C(C)=O)C2CCCC2)SC1c1cc2cccc(C)c2nc1Cl (stereo not drawn)	17.71
NC(=S)N/N=C/c1cc2cccc(Cl)c2nc1Cl	19.58
CC(=O)N(C1=NN(C(C)=O)C(c2cc3cccc(Cl)c3nc2Cl)S1)c1ccc([N+](=O)[O-])cc1 (stereo not drawn)	16.32
CC(=O)N(C1=NN(C(C)=O)C(c2cc3cccc(C)c3nc2Cl)S1)c1ccc(C)cc1 (stereo not drawn)	18.32
CC(=O)N(C1=NN(C(C)=O)C(c2cc3ccccc3nc2Cl)S1)c1ccccc1C (stereo not drawn)	17.14
CC(=O)N(C1=NN(C(C)=O)C(c2cc3ccccc3nc2Cl)S1)c1ccc([N+](=O)[O-])cc1 (stereo not drawn)	14.92
CC(=O)N1N=C(N(C(C)=O)C2CCCCC2)SC1c1cc2cccc(C)c2nc1Cl (stereo not drawn)	13.09
Cc1ccc(NC(=S)N/N=C/c2cc3cccc(C)c3nc2Cl)cc1	17.65
CC(=O)N(C1=NN(C(C)=O)C(c2cc3ccccc3nc2Cl)S1)c1ccc(C)cc1 (stereo not drawn)	17
S=C(N/N=C/c1cc2ccccc2nc1Cl)NC1CCCCC1	12.38
CC(=O)N1N=C(N(C(C)=O)C2CCCC2)SC1c1cc2ccccc2nc1Cl (stereo not drawn)	19.93
S=C(N/N=C/c1cc2cccc(Cl)c2nc1Cl)NC1CCCCCCC1	17.54
CC(=O)N(C1=NN(C(C)=O)C(c2cc3ccccc3nc2Cl)S1)c1cc(F)ccc1F (stereo not drawn)	14.74

Taken from ChEMBL document CHEMBL1799921.
